recombinant barcode read abundance (log10) overview
Assay: recombinant barcode read abundance after kanamycin selection (control-corrected) (log10(CPM+1)); higher = more efficient recombination; sequences stand for … in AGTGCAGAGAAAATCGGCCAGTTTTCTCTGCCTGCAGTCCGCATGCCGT…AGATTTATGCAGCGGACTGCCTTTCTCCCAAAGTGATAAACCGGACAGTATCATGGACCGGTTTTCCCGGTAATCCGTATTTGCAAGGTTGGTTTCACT; site = the 11-nt target
Reply briefly: the number, and no unit.

Solved cases (5 shown):
CAGACTCCTTGGGTTCTAACCTGTTGCCT (site CAGACTCCTAG) ... 0.214
TAGGCCACTTGGGTTCTAACCTGTTGCAT (site TAGGCCACTAA) ... 0.071
GGTGCGTCTTGGGTTCTAACCTGTTGCCT (site CGTGCGTCTAG) ... 0.132
ACTAGTCCTTGGGTTCTAACCTGTTGCTT (site ACTAGTCCTAG) ... 0.189
CCAGCAGCTTGGGTTCTAACCTGTTGCCT (site CCAGCAGCTAG) ... 0.675

# evaluate next
Looking up AGACGACCTTGGGTTCTAACCTGTTGCGG (site AGACGACCTCC) , I see its recombinant barcode read abundance (log10) listed as 2.95

* * *

Assay: recombinant UMI read abundance after kanamycin selection (control-corrected) (log10(CPM+1)); higher = more efficient recombination; extreme values may be limits of the assay; sequences stand for … in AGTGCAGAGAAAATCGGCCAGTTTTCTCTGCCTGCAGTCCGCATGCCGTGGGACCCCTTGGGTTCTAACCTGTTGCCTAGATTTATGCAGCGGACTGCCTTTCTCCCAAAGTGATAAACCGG…AGGTTGGTTTCACT; site = the 11-nt donor
recombinant UMI read abundance (log10) overview
Reply briefly: the number, and no unit.

Solved cases (3 shown):
CTATATACATGGACCGGTTTTCCCGGTAATCCGTATTTGAC (site CTATATACTGT) ... 3.02
CTCCCTACATGGACCGGTTTTCCCGGTAATCCGTATTTGTG (site CTCCCTACTCC) ... 0.617
GGTCACCCATGGACCGGTTTTCCCGGTAATCCGTATTTGTT (site GGGCACCCTAA) ... 0.0126

Looking up AGCCTATCATGGACCGGTTTTCCCGGTAATCCGTATTTGTT (site AGCCTATCTAA) , I see its recombinant UMI read abundance (log10) listed as 0

Looking up CGCGAGTCATGGACCGGTTTTCCCGGTAATCCGTATTTGCC (site CGGGAGTCTGG) , I see its recombinant UMI read abundance (log10) listed as 0

Looking up ATGAAGACATGGACCGGTTTTCCCGGTAATCCGTATTTGCA (site ACGAAGACTTG) , I see its recombinant UMI read abundance (log10) listed as 2.34

Looking up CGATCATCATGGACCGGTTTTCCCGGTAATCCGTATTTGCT (site CGATCCTCTAC) , I see its recombinant UMI read abundance (log10) listed as 0.00344

Looking up AGAGGACCATGGACCGGTTTTCCCGGTAATCCGTATTTGGG (site AGAGGACCTCC) , I see its recombinant UMI read abundance (log10) listed as 0.0119

Looking up CAATGCTCATGGACCGGTTTTCCCGGTAATCCGTATTTGTA (site CAATGCTCTTC) , I see its recombinant UMI read abundance (log10) listed as 0.746

* * *

recombinant barcode read abundance (log10) overview
Assay: recombinant barcode read abundance after kanamycin selection (control-corrected) (log10(CPM+1)); higher = more efficient recombination; sequences stand for … in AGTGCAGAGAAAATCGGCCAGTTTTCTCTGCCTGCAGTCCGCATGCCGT…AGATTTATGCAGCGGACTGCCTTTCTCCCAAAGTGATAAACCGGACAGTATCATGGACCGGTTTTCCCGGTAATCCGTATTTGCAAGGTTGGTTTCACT; site = the 11-nt target
Reply briefly: the number, and no unit.

ATCGTAGCTTGGGTTCTAACCTGTTGCCA (site ACCCTAGCTTG) ... 0.497
AACCCTACTTGGGTTCTAACCTGTTGCCT (site AACCCTACTAG) ... 0.929

Looking up AATTGTCCTTGGGTTCTAACCTGTTGCCT (site AATTGTCCTAC) , I see its recombinant barcode read abundance (log10) listed as 0.0374

Looking up ACGAGTCCTTGGGTTCTAACCTGTTGCCT (site ACGAGTCCTAC) , I see its recombinant barcode read abundance (log10) listed as 0.112

Looking up GTGAACTCTTGGGTTCTAACCTGTTGCCT (site GTGAACTCTAG) , I see its recombinant barcode read abundance (log10) listed as 1.85

Looking up GTCTATGCTTGGGTTCTAACCTGTTGCCT (site GGCTATGCTAG) , I see its recombinant barcode read abundance (log10) listed as 0.185

Looking up ACTACTACTTGGGTTCTAACCTGTTGCCT (site ACTACTACTAG) , I see its recombinant barcode read abundance (log10) listed as 0.172

Looking up GAGTGGCCTTGGGTTCTAACCTGTTGCTT (site GAGTGGCCTAG) , I see its recombinant barcode read abundance (log10) listed as 0.068

Looking up TATCCGACTTGGGTTCTAACCTGTTGCCC (site TATCCGACTTG) , I see its recombinant barcode read abundance (log10) listed as 0.125

Looking up AGAGGAGCTTGGGTTCTAACCTGTTGCAG (site AGAGATGCTCT) , I see its recombinant barcode read abundance (log10) listed as 0.115

* * *

Test: recombinant barcode read abundance after kanamycin selection (control-corrected) (log10(CPM+1)); higher = more efficient recombination; sequences stand for … in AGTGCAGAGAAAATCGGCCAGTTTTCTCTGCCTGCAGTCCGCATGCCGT…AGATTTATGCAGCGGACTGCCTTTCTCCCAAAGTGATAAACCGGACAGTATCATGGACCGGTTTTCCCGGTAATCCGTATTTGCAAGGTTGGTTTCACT; site = the 11-nt target
Short version: recombinant barcode read abundance (log10) at least 0.6 is class 1, less is class 0.

These solved cases illustrate the format of a correct answer.
GGCTTCCCTTGGGTTCTAACCTGTTGCCT (site GGCTTCCCTAG) ... class 0
GGACGTCCTTGGGTTCTAACCTGTTGCCT (site GGACGTCCTAG) ... class 1
AGGATTACTTGGGTTCTAACCTGTTGCCT (site AGGATTACTAG) ... class 1
CGGAATCCTTGGGTTCTAACCTGTTGCGT (site CGGAATCCTAG) ... class 0

Could you now look at the following sequence, please?
input: Given the entry TAGATCGCTTGGGTTCTAACCTGTTGCAG (site TAGATCGCTCT) , answer whether its recombinant barcode read abundance (log10) meets or surpasses 0.6.
output: class 1

* * *

Assay: recombinant UMI read abundance after kanamycin selection (control-corrected) (log10(CPM+1)); higher = more efficient recombination; extreme values may be limits of the assay; sequences stand for … in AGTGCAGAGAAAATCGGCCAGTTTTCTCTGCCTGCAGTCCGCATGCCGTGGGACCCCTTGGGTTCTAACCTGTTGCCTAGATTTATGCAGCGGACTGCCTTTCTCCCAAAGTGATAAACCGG…AGGTTGGTTTCACT; site = the 11-nt donor
Categorized via recombinant UMI read abundance (log10): A: < 0.01; B: ≥ 0.01 and < 0.03; C: ≥ 0.03

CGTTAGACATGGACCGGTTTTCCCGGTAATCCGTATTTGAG (site CGTTTGACTCT) ... B
GCGAAGCCATGGACCGGTTTTCCCGGTAATCCGTATTTGGC (site GCGAAGCCTGC) ... A
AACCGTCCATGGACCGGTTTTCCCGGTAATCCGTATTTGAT (site AACCGTCCTTT) ... B
CGGTCGACATGGACCGGTTTTCCCGGTAATCCGTATTTGGG (site CAGTCGACTCC) ... B
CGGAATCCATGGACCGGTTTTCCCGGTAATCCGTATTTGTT (site TGCAATCCTAA) ... B

input: Place this sequence in its band: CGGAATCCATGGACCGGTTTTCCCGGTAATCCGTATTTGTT (site CAGAAGCCTAA)
output: A

input: Place this sequence in its band: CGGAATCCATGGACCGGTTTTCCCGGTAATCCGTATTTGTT (site CAGTATCCTAA)
output: B

input: Place this sequence in its band: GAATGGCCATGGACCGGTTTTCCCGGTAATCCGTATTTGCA (site GGATGGCCTTG)
output: A

input: Place this sequence in its band: CGGATACCATGGACCGGTTTTCCCGGTAATCCGTATTTGTT (site CGGAATCCTAA)
output: A

input: Place this sequence in its band: ACATCCACATGGACCGGTTTTCCCGGTAATCCGTATTTGTG (site ACATCCACTCA)
output: C

input: Place this sequence in its band: CGACGTACATGGACCGGTTTTCCCGGTAATCCGTATTTGCT (site CGCCGTACTAG)
output: B

input: Place this sequence in its band: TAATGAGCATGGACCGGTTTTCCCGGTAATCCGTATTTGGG (site TGATGAGCTCC)
output: A

input: Place this sequence in its band: TATCCCGCATGGACCGGTTTTCCCGGTAATCCGTATTTGCC (site TATCCCGCTGG)
output: C

input: Place this sequence in its band: GCCGTATCATGGACCGGTTTTCCCGGTAATCCGTATTTGCA (site GCCGTATCTTG)
output: C

These measurements were taken from the supplement of paper PMC11208160.
